- system tested: Arf-GAP with SH3 domain, ANK repeat and PH domain-containing protein 1 (Homo sapiens) (UniProt Q9ULH1)
- Sequence (Q9ULH1 325-724 limits assumed): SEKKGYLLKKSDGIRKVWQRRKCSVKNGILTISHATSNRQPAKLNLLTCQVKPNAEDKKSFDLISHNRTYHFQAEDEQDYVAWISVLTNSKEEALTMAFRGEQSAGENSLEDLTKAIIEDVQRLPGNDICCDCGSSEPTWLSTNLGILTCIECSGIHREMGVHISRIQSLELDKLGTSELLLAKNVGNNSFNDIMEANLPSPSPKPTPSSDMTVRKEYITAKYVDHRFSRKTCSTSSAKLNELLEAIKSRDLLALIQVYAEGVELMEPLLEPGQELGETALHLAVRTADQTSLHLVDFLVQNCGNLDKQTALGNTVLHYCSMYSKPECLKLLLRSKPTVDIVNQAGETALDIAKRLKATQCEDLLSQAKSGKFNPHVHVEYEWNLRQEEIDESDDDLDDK
- test: inhibitors of human ASAP1 ArfGAP activity, primary screen, biochemical, fluorescence polarization (AID 624377);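 also: 0% = vehicle with enzyme and substrate and 100% = no enzyme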
- study conditions: ASAP1-stimulated ARF1 GTP hydrolysis, GDP FP detection; at 16.5 µM; stronger effect = higher value
About 680 (0.19%) of roughly 360,000 compounds were called active. This is one part of a sample in which actives are shown more often than they occur.
Property: inhibition; scope: individual compounds
Write down the numeric answer in % and omit the unit.

Answered examples (2):
• c1ccc(-c2cc(-c3nnc4sc(-c5ccccn5)nn34)[nH]n2)cc1 = 28.1
• COC(=O)Cc1nnn2c1[C@H](C)[C@@H](OC)c1cc(Br)ccc1-2 = 8.77

Now for the compound whose inhibition we want.
Request: Give the value of inhibition reported for the following: Cc1[nH]nc2c1C(c1ccc(Br)cc1)NC2=O (stereo not drawn)
Response: 13.4

###

- system tested: Arf-GAP with SH3 domain, ANK repeat and PH domain-containing protein 1 (Homo sapiens)
- test: inhibitors of human ASAP1 ArfGAP activity, primary screen, biochemical, fluorescence polarization (AID 624377);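 also: 0% = vehicle with enzyme and substrate and 100% = no enzyme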
- study conditions: ASAP1-stimulated ARF1 GTP hydrolysis, GDP FP detection; at 16.5 µM
Out of some 360,000 compounds screened, about 680 (0.19%) were called active. Rule as the data show it: active = inhibition above about 25%; inactive = the rest. The full list was thinned out, with actives kept by preference.
Please state which outcome applies, choosing from active, inactive

* Nc1nc2c(ncn2[C@@H]2O[C@H](C(=O)N[C@@H](Cc3ccccc3)C(=O)NCc3ccccc3)[C@@H](O)[C@H]2O)c(=O)[nH]1 | inactive

Request: In this assay, the call recorded for C#CCNc1ccc(C(=O)OCC)cc1 was what?
Response: inactive

Request: Fill in: this test's call for CCOC(=O)/C=C/c1ccccc1O is ___
Response: inactive

Request: Name the outcome recorded for CCN1CCN(CCNC(=O)c2ccc3c(c2)NC(=O)/C(=C\c2ccc(OC)c(OC)c2)S3)CC1 in the assay.
Response: active

###

- system tested: Arf-GAP with SH3 domain, ANK repeat and PH domain-containing protein 1 (Homo sapiens) (UniProt Q9ULH1)
- test: inhibitors of human ASAP1 ArfGAP activity, primary screen, biochemical, fluorescence polarization (AID 624377);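 also: 0% = vehicle with enzyme and substrate and 100% = no enzyme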
- study conditions: ASAP1-stimulated ARF1 GTP hydrolysis, GDP FP detection; at 16.5 µM; stronger effect = higher value
Among all 360,000 compounds or so, about 680 (0.19%) were called active. The sample as a whole holds a higher share of actives than the screen did.
readout kind: inhibition

Check out these entries, answers already filled in.
• COC(=O)Cc1nnn2c1[C@H](C)[C@H](c1ccccc1[N+](=O)[O-])OCC2 = 5.28% (inactive)
• C[C@H](O)[C@@H]1CN2CCc3ccc(-c4ccc5c(c4)OCO5)cc3[C@@H]2C[C@@H]1N(C)C(=O)C1CCCCC1 = -4.95% (inactive)
• CCCCCCCCN1C(=O)[C@@H](CC(=O)N2CCN(C(=O)OCC)CC2)C[C@@]2(C(=O)OC)C1=C[C@H](C1CCCC1)O[C@@H]2C = -6.71% (inactive)
• N#Cc1ccc(OCCCN2CCC(C(O)(c3ccccc3)c3ccccc3)CC2)c(F)c1 = 12.3% (inactive)
• CCN1CCCC1CNC(=O)c1ccc2c(c1)NC(=O)/C(=C\c1ccccc1F)S2 (stereo not drawn) = -12.3% (inactive)

Request: Retrieve inhibition measured for C=CCC[C@H](CCCCC)OC(=O)/C=C/[C@H](O)[C@@H](O)C[C@@H](O)CC=C and print it.
Response: 5.11% (inactive)

Request: Consider the compound CCOC(=O)c1ccc(Nc2cc3ccccc3c(=O)[nH]2)cc1 . State its measured inhibition.
Response: 29.1% (active)

Request: Tell me its inhibition given CCOc1ccccc1C(=O)N1CCC[C@@H]1C(=O)N1CCC[C@H]1C(=O)NCc1ccccc1 as the entry.
Response: -4.19% (inactive)

Request: Specify inhibition for COC(=O)C1=C(C)N(Cc2ccccc2C(F)(F)F)C(=NCC2CC2)NC1c1cccc(Cl)c1 (stereo not drawn) and stop.
Response: 17.5% (inactive)

Request: Give the reported value of inhibition for this record: CC[C@H](C)[C@H]1CNC(=O)C(=O)N1CC1CCN(CCc2ccc(OC)c(OC)c2)CC1
Response: -3.91% (inactive)

Request: # return recorded inhibition for entry Cc1cc2nc3c(=O)[nH]c(=O)nc-3n(C[C@H](O)[C@H](O)[C@H](O)CO)c2cc1C
Response: 0.24% (inactive)

Request: Give recorded inhibition. C[C@H]1CN([C@@H](C)CO)C(=O)CCCn2nncc2CO[C@@H]1CN(C)C(=O)Nc1ccc(N2CCN(C)CC2)cc1
Response: 6.23% (inactive)

Request: Input Cc1cc(Br)cn2c(Cc3ccccc3C(F)(F)F)c(-c3ccc(C#N)cc3)nc12 , output reported inhibition.
Response: -9.38% (inactive)
